Target: recombinant human NK3 receptor (Homo sapiens)
Sequence (P29371 1-465): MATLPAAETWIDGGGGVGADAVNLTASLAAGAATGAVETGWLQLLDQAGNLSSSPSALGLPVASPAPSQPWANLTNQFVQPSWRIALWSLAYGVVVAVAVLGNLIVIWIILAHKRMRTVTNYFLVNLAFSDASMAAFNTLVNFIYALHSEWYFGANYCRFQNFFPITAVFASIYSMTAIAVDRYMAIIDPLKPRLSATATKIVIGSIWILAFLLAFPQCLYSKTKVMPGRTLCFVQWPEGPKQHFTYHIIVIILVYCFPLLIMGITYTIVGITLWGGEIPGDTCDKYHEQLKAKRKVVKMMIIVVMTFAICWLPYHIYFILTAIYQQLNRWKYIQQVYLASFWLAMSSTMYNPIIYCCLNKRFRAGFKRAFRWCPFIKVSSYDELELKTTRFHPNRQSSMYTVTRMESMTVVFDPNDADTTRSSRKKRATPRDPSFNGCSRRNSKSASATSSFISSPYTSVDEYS
Assay: [3H]SR142801 competition binding assay
Conditions: membranes from HEK293 cells transiently expressing recombinant human NK3 receptor; [3H]SR142801 radioligand; 75 min at RT; Ki by Cheng-Prussoff; read-out: Data Ki (hNK-3 receptor affinity)
The reader will find reported Ki values listed item by item below.
readoutLabel: Ki (nM)

>  <compound>
C[C@H](NC(=O)C1(c2ccccc2)CCN(C(=O)N2CCC(c3ccccc3)CC2)CC1)c1ccccc1

>  <numericReadout>
79.2

$$$$
>  <compound>
Cc1noc(-c2ccc(C(=O)N3CCC(C(=O)NC4(c5ccc(F)cc5)CC4)(c4ccc(F)cc4)CC3)cc2)n1

>  <numericReadout>
9.4

$$$$
>  <compound>
O=C(c1ccc(-c2ccc(F)cc2)cc1)N1CCC(C(=O)NC(c2ccc(F)cc2)C(F)(F)F)(c2ccc(F)cc2)CC1 (stereo not drawn)

>  <numericReadout>
36

$$$$
>  <compound>
C[C@H](NC(=O)C1(c2ccccc2)CCN(C(=O)c2csc(-c3ccncc3)n2)CC1)c1ccccc1

>  <numericReadout>
76.5

$$$$
>  <compound>
C[C@H](NC(=O)C1(c2ccccc2)CCN(C(=O)c2ccc(-c3ccc(N)cc3)cc2)CC1)c1ccccc1

>  <numericReadout>
72.7

$$$$
>  <compound>
Cc1nc(-c2ccc(C(=O)N3CCC(C(=O)N[C@@H](C)c4ccc(F)cc4)(c4ccc(F)cc4)CC3)cc2)no1

>  <numericReadout>
36

$$$$
>  <compound>
C[C@H](NC(=O)C1(c2ccc(F)cc2)CCN(C(=O)c2ccc(N3CCCCC3=O)cc2)CC1)c1cccc(F)c1

>  <numericReadout>
43

$$$$
>  <compound>
C[C@H](NC(=O)C1(c2ccccc2)CCN(C(=O)c2ccc(-n3cncn3)nc2)CC1)c1ccccc1

>  <numericReadout>
80.8

$$$$
>  <compound>
CC[C@H](NC(=O)C1(c2ccccc2)CCN(C(=O)N2CCN(c3ccc(F)cc3)CC2)CC1)c1ccccc1

>  <numericReadout>
3.4

$$$$
>  <compound>
Cc1ccccc1N1CCN(C(=O)N2CCC(C(=O)N[C@@H](C)c3ccccc3)(c3ccccc3)CC2)CC1

>  <numericReadout>
34.9

$$$$
>  <compound>
C[C@H](NC(=O)C1(c2ccccc2)CCN(C(=O)c2ccc(N3CCCCC3=O)cc2)CC1)c1ccccc1

>  <numericReadout>
44.9

$$$$
>  <compound>
Cc1nc(-c2ccc(C(=O)N3CCC(C(=O)N[C@@H](C)c4ccccc4)(c4ccccc4)CC3)cc2)no1

>  <numericReadout>
9.4

$$$$
